Target: T1, human CD25 (human, UniProt P01589 22-213, limits assumed)
T1 construct: Recombinant soluble human CD25, coated on plates (ELISA) or injected over captured antibody (BIAcore); also called hCD25; IL2-R alpha
T1 sequence (looked up): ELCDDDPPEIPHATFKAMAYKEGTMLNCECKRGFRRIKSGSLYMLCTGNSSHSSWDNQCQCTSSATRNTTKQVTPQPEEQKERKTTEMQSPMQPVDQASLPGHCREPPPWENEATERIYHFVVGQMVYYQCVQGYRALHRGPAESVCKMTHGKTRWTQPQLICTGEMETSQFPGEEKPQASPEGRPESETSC
Assay: SPR (BIAcore)
Catalogue of Kd values
Use pM as the unit, but write only the number.

{"binder": "Variant C19 (antibody, name in Kabat numbering, V domains shown, Isotype as printed: G1 fa; also called SRK-SE) VH: QVQLVQSGAEVKKPGSSVKVSCKASGYTFTSYRMHWVRQAPGQGLEWIGYISPRKGYTEYNQKFKDKATITADESTNTAYMELSSLRSEDTAVYYCARGGGVFDYWGQGTLVTVSS VL: DIQMTQSPSTLSASVGDRVTITCSASSSISYMHWYQQKPGKAPKLLIYTTSELASGVPARFSGSGSGTEFTLTISSLQPDDFATYYCHQRSTYPLTFGQGTKVEVK", "Kd (pM)": 16}

input: # query: Kd of entry Variant C26 (antibody, name in Kabat numbering, V domains shown, Isotype as printed: G1 fa; E to K read as E73K) VH: QVQLVQSGAEVKKPGSSVKVSCKASGYTFTSYRMHWVRQAPGQGLEWIGYIKPSRGYTEYNQKFKDKATITADKSTNTAYMELSSLRSEDTAVYYCARGGGVFDYWGQGTLVTVSS VL: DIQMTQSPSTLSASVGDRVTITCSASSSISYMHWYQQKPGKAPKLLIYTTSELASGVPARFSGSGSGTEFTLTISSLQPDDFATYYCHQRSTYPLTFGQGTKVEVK
output: 121
